Test system: 786-0 renal
Assay: NCI tumour cell line growth inhibition, 48 h; in the data active means GI50 below about 0.43 µM; inactive means the rest
Labels: Y (active), N (inactive)

compound | group-label
O=C(O)c1ccc(N(/C=C/C(=O)C(F)(F)F)Cc2ccc(Cl)cc2)cc1 | N
COc1ccc(-c2csc3c2-n2cccc2C3=O)cc1 | Y
O=C(/C=C\c1ccc(O)c(O)c1)c1ccccc1O | N
N#CC1=C(N)Oc2c(sc3c(Br)cccc23)C1c1ccc([N+](=O)[O-])cc1 (configuration not stated) | Y
Cn1cc(C2=C(c3ccsc3)C(=O)NC2=O)c2ccccc21 | N
C[C@@H]1CN2[C@H]3[C@@H]1CC[C@]31CCC(=O)O[C@]1(C)[C@H]1CC[C@H]3CCC=C3[C@@H]12 | N
O=C(CCCc1ccc(N(CCCl)CCCl)cc1)NCc1ccccc1 | N
CN1C(=O)C(c2c[nH]c3ccccc23)=C(c2c[nH]c3ccccc23)C1=O | N
Cc1cc(I)cc(CNCCN(C)C)c1O | N
COc1cc2c(c3oc(-c4ccc(O)cc4)c(O)c(=O)c13)CCC(C)(C)O2 | Y
COc1cc2cc(NCc3cccc(Cl)c3)nc(C)c2cc1OC | N
CNC(=O)Oc1cc(C(C)C)ccc1Sc1ccc(C(C)C)cc1OC(=O)NC | N
